Reference for the values: patent US20180334496A1

- target: T1, serum purified human Complement Factor D (human, UniProt P00746 26-253)
- T1 construct: Serum purified protein flowed over the captured antibodies; also called CFD; human CFD
- T1 sequence (P00746 26-253): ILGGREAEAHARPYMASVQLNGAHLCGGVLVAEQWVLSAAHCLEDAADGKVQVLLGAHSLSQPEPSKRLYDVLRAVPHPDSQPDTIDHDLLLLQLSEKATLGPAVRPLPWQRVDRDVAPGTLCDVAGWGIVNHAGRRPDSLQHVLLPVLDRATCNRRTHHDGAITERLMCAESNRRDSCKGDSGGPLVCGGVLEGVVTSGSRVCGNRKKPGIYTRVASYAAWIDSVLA
- methodNotes: SPR Biacore, antibody on protein A chip, single cycle kinetics, 37 C;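 further: antibodies captured on the protein A surface to roughly 70 RU in HBS-EP+ buffer, with rate and affinity constants fitted using BIAevaluation software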

binder	scaleUnit	kon
54V59D / 32D50I101V (antibody, V domains shown, KCD119 TAF variant; full antibody captured on protein A) VH: EVQLVESGGGLVQPGGSLRLSCAASGYTFTDYYMNWVRQAPGKGLEWIGDINPVTGDTDYNADFKRRFTFSLDTSKSTAYLQMNSLRAEDTAVYYCTREGPSFAYWGQGTLVTVSS VL: DIQLTQSPSSLSASVGDRVTITCRSSQTIVHDNGDTYLEWYQQKPGKAPILLIYKVSNRFSGVPSRFSGSGSGTDFTLTISSLQPEDFATYYCFQGSHVPVTFGQGTKVEIK	M⁻¹ s⁻¹	1.5e+07
34I54I59D84S / 54G101V (antibody, V domains shown, also called 34I54I59D845 / 54G101V) VH: EVQLVESGGGLVQPGGSLRLSCAASGYTFTDYYINWVRQAPGKGLEWIGDINPITGDTDYNADFKRRFTFSLDTSKSTAYLQMSSLRAEDTAVYYCTREGPSFAYWGQGTLVTVSS VL: DIQLTQSPSSLSASVGDRVTITCRSSQTIVHSNGDTYLEWYQQKPGKAPNLLIGKVSNRFSGVPSRFSGSGSGTDFTLTISSLQPEDFATYYCFQGSHVPVTFGQGTKVEIK	M⁻¹ s⁻¹	1.45e+07
54V59D / 32D60W101V (antibody, V domains shown, KCD119 TAF variant; full antibody captured on protein A) VH: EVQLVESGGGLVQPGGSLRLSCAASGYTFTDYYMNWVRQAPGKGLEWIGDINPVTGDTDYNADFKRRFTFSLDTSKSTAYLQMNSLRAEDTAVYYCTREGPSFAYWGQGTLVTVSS VL: DIQLTQSPSSLSASVGDRVTITCRSSQTIVHDNGDTYLEWYQQKPGKAPNLLIYKVSNRWSGVPSRFSGSGSGTDFTLTISSLQPEDFATYYCFQGSHVPVTFGQGTKVEIK	M⁻¹ s⁻¹	8.93e+06
31S54I59D / 54G101V (antibody, V domains shown, KCD119 TAF variant; full antibody captured on protein A) VH: EVQLVESGGGLVQPGGSLRLSCAASGYTFTSYYMNWVRQAPGKGLEWIGDINPITGDTDYNADFKRRFTFSLDTSKSTAYLQMNSLRAEDTAVYYCTREGPSFAYWGQGTLVTVSS VL: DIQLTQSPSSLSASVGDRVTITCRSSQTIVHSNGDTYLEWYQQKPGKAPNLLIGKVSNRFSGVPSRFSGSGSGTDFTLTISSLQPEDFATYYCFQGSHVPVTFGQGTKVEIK	M⁻¹ s⁻¹	2.38e+07
48V54V59D / 32W60W101V (antibody, V domains shown, KCD119 TAF variant; full antibody captured on protein A) VH: EVQLVESGGGLVQPGGSLRLSCAASGYTFTDYYMNWVRQAPGKGLEWVGDINPVTGDTDYNADFKRRFTFSLDTSKSTAYLQMNSLRAEDTAVYYCTREGPSFAYWGQGTLVTVSS VL: DIQLTQSPSSLSASVGDRVTITCRSSQTIVHWNGDTYLEWYQQKPGKAPNLLIYKVSNRWSGVPSRFSGSGSGTDFTLTISSLQPEDFATYYCFQGSHVPVTFGQGTKVEIK	M⁻¹ s⁻¹	1.31e+07
KCD119 TAF / KCD119 TAF (antibody, V domains shown, Humanized KCD119; tested as full antibody captured on protein A; also called D19 TAF) VH: EVQLVESGGGLVQPGGSLRLSCAASGYTFTDYYMNWVRQAPGKGLEWIGDINPNTGDTSYNADFKRRFTFSLDTSKSTAYLQMNSLRAEDTAVYYCTREGPSFAYWGQGTLVTVSS VL: DIQLTQSPSSLSASVGDRVTITCRSSQTIVHSNGDTYLEWYQQKPGKAPNLLIYKVSNRFSGVPSRFSGSGSGTDFTLTISSLQPEDFATYYCFQGSHVPPTFGQGTKVEIK	M⁻¹ s⁻¹	1.26e+07
28H31S54V59D / 101V (antibody, V domains shown, KCD119 TAF variant; full antibody captured on protein A) VH: EVQLVESGGGLVQPGGSLRLSCAASGYHFTSYYMNWVRQAPGKGLEWIGDINPVTGDTDYNADFKRRFTFSLDTSKSTAYLQMNSLRAEDTAVYYCTREGPSFAYWGQGTLVTVSS VL: DIQLTQSPSSLSASVGDRVTITCRSSQTIVHSNGDTYLEWYQQKPGKAPNLLIYKVSNRFSGVPSRFSGSGSGTDFTLTISSLQPEDFATYYCFQGSHVPVTFGQGTKVEIK	M⁻¹ s⁻¹	1.72e+07
54I59D / 54S60W101V (antibody, V domains shown, Light label printed 54560W101V, read as 54S60W101V; also called 54I59D / 54560W101V) VH: EVQLVESGGGLVQPGGSLRLSCAASGYTFTDYYMNWVRQAPGKGLEWIGDINPITGDTDYNADFKRRFTFSLDTSKSTAYLQMNSLRAEDTAVYYCTREGPSFAYWGQGTLVTVSS VL: DIQLTQSPSSLSASVGDRVTITCRSSQTIVHSNGDTYLEWYQQKPGKAPNLLISKVSNRWSGVPSRFSGSGSGTDFTLTISSLQPEDFATYYCFQGSHVPVTFGQGTKVEIK	M⁻¹ s⁻¹	1.24e+07
54V59D / 34D60W101V (antibody, V domains shown, KCD119 TAF variant; full antibody captured on protein A) VH: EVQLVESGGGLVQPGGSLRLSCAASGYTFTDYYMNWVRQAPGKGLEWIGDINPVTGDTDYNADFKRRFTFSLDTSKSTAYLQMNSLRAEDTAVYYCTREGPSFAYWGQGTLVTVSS VL: DIQLTQSPSSLSASVGDRVTITCRSSQTIVHSNDDTYLEWYQQKPGKAPNLLIYKVSNRWSGVPSRFSGSGSGTDFTLTISSLQPEDFATYYCFQGSHVPVTFGQGTKVEIK	M⁻¹ s⁻¹	1.56e+07
54I59D / 50I60W101V (antibody, V domains shown, KCD119 TAF variant; full antibody captured on protein A) VH: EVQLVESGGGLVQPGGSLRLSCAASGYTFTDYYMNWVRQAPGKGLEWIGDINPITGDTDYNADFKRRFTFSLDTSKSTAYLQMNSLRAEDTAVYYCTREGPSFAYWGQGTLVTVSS VL: DIQLTQSPSSLSASVGDRVTITCRSSQTIVHSNGDTYLEWYQQKPGKAPILLIYKVSNRWSGVPSRFSGSGSGTDFTLTISSLQPEDFATYYCFQGSHVPVTFGQGTKVEIK	M⁻¹ s⁻¹	1.04e+07
